Property: glycan array binding signal (z-score); scope: individual binders
Target: GalNAc(b1-4)GlcNAc
Assay: glycan array binding signal (z-score within array); higher = stronger binding
Details: glycan notation: IUPAC condensed, linker removed
The sample as a whole holds a higher share of the strongest signals than the screen did.
Format: numeric value only, no unit, no commentary.

Field: example entries. Status: answers known.
Gal-9-hFc (Mus musculus), O08573-2 (protein) MALFSAQSPYINPIIPFTGPIQGGLQEGLQVTLQGTTKSFAQRFVVNFQNSFNGNDIAFHFNPRFEEGGYVVCNTKQNGQWGPEERKMQMPFQKGMPFELCFLVQRSEFKVMVNKKFFVQYQHRVPYHLVDTIAVSGCLKLSFITFQTQNFRPAHQAPMAQTTIHMVHSTPGQMFSTPGIPPVVYPTPAYTIPFYTPIPNGLYPSKSIMISGNVLPDATRFHINLRCGGDIAFHLNPRFNENAVVRNTQINNSWGQEERSLLGRMPFSRGQSFSVWIICEGHCFKVAVNGQHMCEYYHRLKNLQDINTLEVAGDIQLTHVQT : -0.176
rCNL (Clitocybe nebularis), B2ZRS9 (protein) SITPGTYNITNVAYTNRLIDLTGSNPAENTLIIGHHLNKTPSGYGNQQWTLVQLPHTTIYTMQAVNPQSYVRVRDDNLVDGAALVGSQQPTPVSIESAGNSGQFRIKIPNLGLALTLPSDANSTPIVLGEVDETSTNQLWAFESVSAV : 6.23
CFEM-SCL (Saccharomyces cerevisiae), O13547 (protein) MRATTLLSSVVSLALLSKEVLATPPACLLACVAQVGKSSSTCDSLNQVTCYCEHENSAVKKCLDSICPNNDADAAYSAFKSSCSEQNASLGD : 0.047

Let us move to another entry and its glycan array binding signal (z-score).
Asked: Param item = YASPKCFRYPNGVLACT [Odorranalectin (Odorrana grahami), B3TFE9_RANGR] ; retrieve measured glycan array binding signal (z-score).
Given back: 4.83
